The measurements presented in this section are drawn from patent US20230079819A1.

Documented IC50 across a set of compounds
target or system: BRG-1 (Homo sapiens)
Construct: made in house; host or cells: High Five insect cells
test details: ATPase catalytic activity of BRG-1, ADP-Glo in vitro biochemical assay
condition summary: ATPase catalytic activity, 30 nM BRG-1, 400 μM ATP, read-out: BRG1 IP50 (μM)*

In: Look up IC50 of C[C@@H]1CN(c2nc(-c3csc(NC(=O)CNC(=O)c4ccn(C5(C)COC5)c4)n3)ccc2F)C[C@H](C)O1 and report it.
Out: > 0.01 µM

In: Look up IC50 of COC[C@H](NC(=O)c1ccn(S(C)(=O)=O)c1)C(=O)Nc1nc(-c2cccc(N3C[C@@H](C)O[C@@H](C)C3)c2)cs1 and report it.
Out: < 0.01 µM

In: Look up IC50 of C[C@@H]1CN(c2cccc(-c3csc(NC(=O)CNC(=O)c4ccn(C5(C(F)(F)F)CC5)c4)n3)n2)C[C@H](C)O1 and report it.
Out: > 0.1 µM

In: Look up IC50 of COC[C@@H]1CCN(c2cccc(-c3csc(NC(=O)CNC(=O)c4ccn(S(C)(=O)=O)c4)n3)c2)C1 and report it.
Out: > 0.01 µM

In: Look up IC50 of Cn1ccc2ccc(-c3csc(NC(=O)CNC(=O)c4ccn(S(C)(=O)=O)c4)n3)cc2c1=O and report it.
Out: < 0.01 µM

In: Look up IC50 of CS(=O)(=O)n1ccc(C(=O)NCC(=O)Nc2nc(-c3cccc(N4CC(n5cccn5)C4)c3)cs2)c1 and report it.
Out: > 0.01 µM

In: Look up IC50 of CS(=O)(=O)n1ccc(C(=O)NCC(=O)Nc2nc(-c3cccc(-c4cnn(C5CC5)n4)c3)cs2)c1 and report it.
Out: > 0.01 µM

---

target or system: BRM (Homo sapiens, UniProt P51531)
Construct: made in house; host or cells: High Five insect cells
Sequence (P51531 whole entry): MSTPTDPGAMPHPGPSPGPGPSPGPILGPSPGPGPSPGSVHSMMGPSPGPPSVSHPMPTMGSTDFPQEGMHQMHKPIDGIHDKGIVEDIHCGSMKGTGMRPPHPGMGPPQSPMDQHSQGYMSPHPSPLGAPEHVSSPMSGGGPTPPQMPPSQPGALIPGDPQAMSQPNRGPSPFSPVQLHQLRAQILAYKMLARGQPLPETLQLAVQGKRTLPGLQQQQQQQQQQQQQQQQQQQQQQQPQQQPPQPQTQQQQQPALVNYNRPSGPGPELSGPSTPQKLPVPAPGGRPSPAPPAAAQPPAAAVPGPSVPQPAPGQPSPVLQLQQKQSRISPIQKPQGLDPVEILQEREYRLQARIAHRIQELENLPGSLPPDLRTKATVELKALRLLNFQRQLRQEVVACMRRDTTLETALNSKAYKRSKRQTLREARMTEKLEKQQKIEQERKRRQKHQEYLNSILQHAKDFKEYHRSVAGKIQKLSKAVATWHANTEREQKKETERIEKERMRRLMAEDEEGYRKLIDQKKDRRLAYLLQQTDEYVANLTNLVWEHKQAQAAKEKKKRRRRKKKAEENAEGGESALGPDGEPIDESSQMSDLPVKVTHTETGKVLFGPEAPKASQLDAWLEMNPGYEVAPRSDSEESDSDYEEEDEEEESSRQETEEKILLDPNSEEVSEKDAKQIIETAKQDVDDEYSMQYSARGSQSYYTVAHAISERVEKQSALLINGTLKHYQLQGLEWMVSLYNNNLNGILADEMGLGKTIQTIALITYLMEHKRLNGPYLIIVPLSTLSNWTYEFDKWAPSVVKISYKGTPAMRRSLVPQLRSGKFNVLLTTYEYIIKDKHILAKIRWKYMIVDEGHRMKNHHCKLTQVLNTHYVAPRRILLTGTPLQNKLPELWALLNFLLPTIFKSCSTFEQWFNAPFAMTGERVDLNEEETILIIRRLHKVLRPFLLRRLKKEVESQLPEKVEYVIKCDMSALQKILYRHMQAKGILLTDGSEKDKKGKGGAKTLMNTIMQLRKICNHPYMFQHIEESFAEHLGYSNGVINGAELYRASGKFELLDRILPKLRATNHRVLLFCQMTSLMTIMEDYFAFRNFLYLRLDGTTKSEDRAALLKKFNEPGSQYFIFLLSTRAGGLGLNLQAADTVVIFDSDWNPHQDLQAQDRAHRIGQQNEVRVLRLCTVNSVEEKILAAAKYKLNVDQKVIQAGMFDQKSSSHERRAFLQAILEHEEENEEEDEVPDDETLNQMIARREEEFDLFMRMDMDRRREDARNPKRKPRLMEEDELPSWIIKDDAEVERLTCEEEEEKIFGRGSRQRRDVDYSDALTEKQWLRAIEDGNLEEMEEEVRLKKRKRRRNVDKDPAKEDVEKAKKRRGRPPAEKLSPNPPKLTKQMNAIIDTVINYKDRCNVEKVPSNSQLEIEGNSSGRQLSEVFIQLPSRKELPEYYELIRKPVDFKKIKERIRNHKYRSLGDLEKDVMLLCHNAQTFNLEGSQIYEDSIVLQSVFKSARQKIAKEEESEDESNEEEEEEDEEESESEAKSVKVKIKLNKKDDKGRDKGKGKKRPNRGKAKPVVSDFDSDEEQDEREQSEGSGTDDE
test details: ATPase catalytic activity of BRM, ADP-Glo in vitro biochemical assay
condition summary: ATPase catalytic activity, 30 nM BRM, 400 μM ATP, read-out: BRM IP50 (μM)*
measured metric: IC50

smiles string: CC(C)[C@H](NC(=O)c1ccn(S(C)(=O)=O)c1)C(=O)Nc1nc(-c2cccc(-c3ccncc3)c2)cs1
IC50: > 0.01 µM

In: Look up and report measured IC50 (BRM (Homo sapiens, UniProt P51531)) for the following compound: CSCC[C@H](NC(=O)c1ccn(S(C)(=O)=O)c1)C(=O)Nc1nc(-c2cccc(-c3ccnc(C)c3)c2)cs1
Out: < 0.01 µM

In: Look up and report measured IC50 (BRM (Homo sapiens, UniProt P51531)) for the following compound: CC(C)(NC(=O)c1ccn(S(C)(=O)=O)c1)C(=O)Nc1nc(-c2cccc(-c3ccncc3)c2)cs1
Out: > 0.1 µM

In: Look up and report measured IC50 (BRM (Homo sapiens, UniProt P51531)) for the following compound: C[C@@H]1CN(c2cccc(-c3csc(NC(=O)CNC(=O)c4ccn(S(=O)(=O)N(C)C)c4)n3)c2)C[C@H](C)O1
Out: > 0.01 µM

In: Look up and report measured IC50 (BRM (Homo sapiens, UniProt P51531)) for the following compound: CS(=O)(=O)n1ccc(C(=O)NCC(=O)Nc2nc(-c3cccc(N4CCC(O)CC4)c3)cs2)c1
Out: < 0.01 µM

In: Look up and report measured IC50 (BRM (Homo sapiens, UniProt P51531)) for the following compound: CO[C@H]1CN(c2cccc(-c3csc(NC(=O)CNC(=O)c4ccn(S(C)(=O)=O)c4)n3)c2)C[C@H]1OC
Out: > 0.01 µM

In: Look up and report measured IC50 (BRM (Homo sapiens, UniProt P51531)) for the following compound: CO[C@H]1CCCN(c2cccc(-c3csc(NC(=O)CNC(=O)c4ccn(C(C)(C)C)c4)n3)n2)C1
Out: > 0.01 µM

---

Documented IC50 across a set of compounds
target or system: BRG-1 (Homo sapiens, UniProt P51532)
Construct: made in house; host or cells: High Five insect cells
Sequence (P51532 whole entry): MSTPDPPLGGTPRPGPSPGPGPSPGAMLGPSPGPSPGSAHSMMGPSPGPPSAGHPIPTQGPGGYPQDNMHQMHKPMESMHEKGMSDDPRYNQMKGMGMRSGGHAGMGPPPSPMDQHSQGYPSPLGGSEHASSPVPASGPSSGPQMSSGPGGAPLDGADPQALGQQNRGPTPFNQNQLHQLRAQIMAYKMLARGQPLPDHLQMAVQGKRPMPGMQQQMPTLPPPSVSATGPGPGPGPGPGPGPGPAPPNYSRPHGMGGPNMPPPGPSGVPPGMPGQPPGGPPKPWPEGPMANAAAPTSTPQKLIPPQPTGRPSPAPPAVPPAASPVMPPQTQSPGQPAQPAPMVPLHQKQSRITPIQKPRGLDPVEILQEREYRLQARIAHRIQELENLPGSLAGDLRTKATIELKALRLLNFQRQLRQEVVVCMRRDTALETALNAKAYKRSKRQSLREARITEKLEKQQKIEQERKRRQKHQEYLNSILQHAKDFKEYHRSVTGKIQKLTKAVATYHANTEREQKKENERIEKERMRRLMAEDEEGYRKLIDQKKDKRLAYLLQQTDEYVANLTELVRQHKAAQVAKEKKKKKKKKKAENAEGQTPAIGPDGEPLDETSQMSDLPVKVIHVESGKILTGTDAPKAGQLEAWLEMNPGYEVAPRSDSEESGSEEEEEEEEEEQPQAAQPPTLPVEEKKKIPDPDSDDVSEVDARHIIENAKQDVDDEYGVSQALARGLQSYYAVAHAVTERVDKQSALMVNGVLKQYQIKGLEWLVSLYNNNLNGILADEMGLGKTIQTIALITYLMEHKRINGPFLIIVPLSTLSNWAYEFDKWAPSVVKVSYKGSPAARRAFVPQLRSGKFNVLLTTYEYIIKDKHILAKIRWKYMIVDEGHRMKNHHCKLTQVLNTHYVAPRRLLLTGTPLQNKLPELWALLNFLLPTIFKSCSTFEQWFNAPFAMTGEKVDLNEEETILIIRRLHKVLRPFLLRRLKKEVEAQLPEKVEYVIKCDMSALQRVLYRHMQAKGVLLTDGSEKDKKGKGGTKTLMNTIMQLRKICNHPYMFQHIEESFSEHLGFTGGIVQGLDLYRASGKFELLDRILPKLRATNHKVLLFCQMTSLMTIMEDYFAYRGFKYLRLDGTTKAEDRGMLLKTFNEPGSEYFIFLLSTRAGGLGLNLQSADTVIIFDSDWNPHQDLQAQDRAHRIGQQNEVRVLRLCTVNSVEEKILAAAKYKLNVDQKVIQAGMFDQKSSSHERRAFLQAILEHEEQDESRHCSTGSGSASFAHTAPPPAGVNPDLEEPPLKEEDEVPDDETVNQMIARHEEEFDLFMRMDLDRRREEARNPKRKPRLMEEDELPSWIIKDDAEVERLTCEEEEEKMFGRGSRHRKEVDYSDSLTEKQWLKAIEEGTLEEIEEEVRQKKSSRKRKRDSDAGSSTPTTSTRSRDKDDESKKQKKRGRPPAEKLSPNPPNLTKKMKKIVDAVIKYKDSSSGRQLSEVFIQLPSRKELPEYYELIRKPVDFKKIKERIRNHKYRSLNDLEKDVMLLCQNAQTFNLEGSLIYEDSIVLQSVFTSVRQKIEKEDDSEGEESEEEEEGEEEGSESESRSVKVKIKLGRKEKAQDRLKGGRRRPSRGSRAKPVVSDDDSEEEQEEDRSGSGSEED
test details: ATPase catalytic activity of BRG-1, ADP-Glo in vitro biochemical assay
condition summary: ATPase catalytic activity, 30 nM BRG-1, 400 μM ATP, read-out: BRG1 IP50

// solved cases for IC50 follow
compound: COc1cc(F)cc(-c2csc(NC(=O)CNC(=O)c3ccn(S(C)(=O)=O)c3)n2)c1
measured metric: IC50
result: > 10 nM
--
compound: C[C@H](NC(=O)c1ccn(C(C)(C)C)c1)C(=O)Nc1nc(-c2cccc(-c3cnn(C)n3)n2)cs1
measured metric: IC50
result: > 100 nM

In: Look up IC50 of N#CC1(n2ccc(C(=O)NCC(=O)Nc3nc(-c4cccc(N5CCC5)n4)cs3)c2)CC1 and report it.
Out: > 100 nM

In: Look up IC50 of Cn1cc(N2CCN(c3cccc(-c4csc(NC(=O)CNC(=O)c5ccn(C(C)(C)C)c5)n4)n3)CC2)cn1 and report it.
Out: > 100 nM

In: Look up IC50 of CS(=O)(=O)n1ccc(C(=O)NCC(=O)Nc2nc(-c3cccc(OC(F)(F)F)c3F)cs2)c1 and report it.
Out: > 100 nM

In: Look up IC50 of CC(C)(C)n1ccc(C(=O)NCC(=O)Nc2nc(-c3cccc(N4CC(N5CCS(=O)(=O)CC5)C4)n3)cs2)c1 and report it.
Out: > 100 nM

In: Look up IC50 of CC(C)(C)n1ccc(C(=O)NCC(=O)Nc2nc(-c3cccc(N4CCN5CCOCC5C4)n3)cs2)c1 (stereo not shown) and report it.
Out: > 100 nM

In: Look up IC50 of CS(=O)(=O)n1ccc(C(=O)NCC(=O)Nc2nc(-c3cc(F)cc(C#N)c3)cs2)c1 and report it.
Out: > 10 nM

In: Look up IC50 of CC(C)(C)n1ccc(C(=O)NCC(=O)Nc2nc(-c3cccc(N4CCC5(CC5)C4)n3)cs2)c1 and report it.
Out: > 10 nM

In: Look up IC50 of C[C@@H]1CN(c2cncc(-c3csc(NC(=O)CNC(=O)c4ccn(C(C)(C)C)c4)n3)n2)C[C@H](C)O1 and report it.
Out: > 10 nM

---

target or system: BRG-1 (Homo sapiens, UniProt P51532)
Construct: made in house; host or cells: High Five insect cells
test details: ATPase catalytic activity of BRG-1, ADP-Glo in vitro biochemical assay
condition summary: ATPase catalytic activity, 30 nM BRG-1, 400 μM ATP, read-out: BRG1 IP50 (μM)*
measured metric: IC50

smiles string: CS(=O)(=O)n1ccc(C(=O)NCC(=O)Nc2nc(-c3cccc(N4CCOCC4)c3)cs2)c1
measured metric: IC50
result: > 0.01 µM
//
smiles string: CS(=O)(=O)n1ccc(C(=O)N[C@@H](CCO)C(=O)Nc2nc(-c3cccc(-c4ccncc4)c3)cs2)c1
measured metric: IC50
result: < 0.01 µM
//
smiles string: CCS(=O)(=O)n1ccc(C(=O)NCC(=O)Nc2nc(-c3cccc(N4C[C@@H](C)O[C@@H](C)C4)c3)cs2)c1
measured metric: IC50
result: > 0.01 µM
//
smiles string: CS(=O)(=O)n1ccc(C(=O)NCC(=O)Nc2nc(-c3cccc(N4CCC(O)CC4)c3)cs2)c1
measured metric: IC50
result: < 0.01 µM
//
smiles string: CS(=O)(=O)n1ccc(C(=O)NCC(=O)Nc2nc(-c3cccc(C#N)c3)cs2)c1
measured metric: IC50
result: > 0.01 µM

In: Look up IC50 of CC1(O)CN(c2cccc(-c3csc(NC(=O)CNC(=O)c4ccn(S(C)(=O)=O)c4)n3)c2)C1 and report it.
Out: > 0.01 µM

In: Look up IC50 of CS(=O)(=O)n1ccc(C(=O)NCC(=O)Nc2nc(-c3cccc(C4(F)CCC4)c3)cs2)c1 and report it.
Out: > 0.01 µM

In: Look up IC50 of CS(=O)(=O)n1ccc(C(=O)N[C@@H](CO)C(=O)Nc2nc(-c3cccc(-c4ccncc4)c3)cs2)c1 and report it.
Out: < 0.01 µM

In: Look up IC50 of CS(=O)(=O)n1ccc(C(=O)NCC(=O)Nc2nc(-c3cccc(N4CCC[C@@H](C#N)C4)c3)cs2)c1 and report it.
Out: > 0.01 µM

In: Look up IC50 of CS(=O)(=O)n1ccc(C(=O)NCC(=O)Nc2nc(-c3ccc4c(c3F)OCC4)cs2)c1 and report it.
Out: > 0.01 µM

In: Look up IC50 of COC[C@H](NC(=O)c1ccn(S(C)(=O)=O)c1)C(=O)Nc1nc(-c2cccc(N3CCO[C@H](C)C3)c2)cs1 and report it.
Out: > 0.01 µM

In: Look up IC50 of C[C@@H]1CN(c2cc(-c3csc(NC(=O)CNC(=O)c4ccn(S(C)(=O)=O)c4)n3)cc(F)c2F)C[C@H](C)O1 and report it.
Out: < 0.01 µM

In: Look up IC50 of COC(C)(C)C#Cc1cccc(-c2csc(NC(=O)CNC(=O)c3ccn(C(C)(C)C)c3)n2)n1 and report it.
Out: > 0.1 µM

In: Look up IC50 of COC[C@@H]1CCCN(c2cccc(-c3csc(NC(=O)CNC(=O)c4ccn(S(C)(=O)=O)c4)n3)c2)C1 and report it.
Out: > 0.01 µM

In: Look up IC50 of C[C@@H]1CN(c2cccc(-c3csc(NC(=O)CNC(=O)c4ccn(C(C)(C)C#N)c4)n3)n2)C[C@H](C)O1 and report it.
Out: < 0.01 µM
